system: TO-N3-2 (biotin conjugate); experiment: pull-down binding Z-score (relative to library population); higher = stronger binding; conditions: RNA library: Library-2

| sequence | pull-down binding Z-score |
| --- | --- |
| UCUAUUAAAAUAUAAUGA [DMSMaPseq_invitro_SARS-CoV-2_Motif_395] | -0.693 |
| CGGUCGGAUAAUCACAUGACGAG [hsa-mir-2114] | 0.592 |
| CACACUGGUGAGGUAACAGGAUCCGGUG [hsa-mir-182] | 0.691 |
| CGUGCUCAGCUUGGCACCCAAGUUCUGC [hsa-mir-7704] | 1.39 |
| GGUUUUAUAGCUGGCUUGAUUGCCAUAGUAAUGGUGACAAUUAUGCUUUGCUGUAUGACC | -0.582 |
| CAACUUACAAAUUAAAUGUUG | -1.06 |
| UGGUACUAUCUAUACAGAACUGGAACCA [SHAPE_invitro_SARS-CoV-2_Motif_233] | -0.456 |
| UUUGCCAGAGCUACAAAGGCAAA [hsa-mir-561] | -0.512 |
| UUAAUGGAGUCACAUUAA [DMSMaPseq_invitro_SARS-CoV-2_Motif_357] | -1 |
| GGUAGGUUACGUCAUGCUGUUCUACC [hsa-mir-140] | 0.193 |
| AGAUGUGUUUCCAUUCCACUAUCAUAAU [hsa-mir-365a] | -0.292 |
| CUUCUUGCAUGUGACUUAUGUCCCUGCACAAGAAAAG [SHAPE_invitro_SARS-CoV-2_Motif_449] | -0.177 |
| GUGAUUACAUUAAAACUUAAAAUUUCAC [hsa-mir-4719] | -0.663 |
| AACUGGUAAUACACUUCAGUGUAUAAUGCUAGUU | -1.89 |
| AGUUCCUGAUUAAGAAAUGGAAUU [hsa-mir-4699] | -1 |

This collection of values is drawn from the supplement of paper PMC11865577.
